- system: bovine thrombin (Bos taurus)
- Construct: 25 μl of bovine thrombin solution (0.21 mg/ml of thrombostat powder); purchased thrombostat powder
- assayOverview: Plasma coagulation assay: thrombin time
- Assay type: biochemical
Structures can show the parent of a compound that is named as a salt. Square brackets hold non-standard residues; d marks the D form. Peptide text beside a SMILES is read from it. * marks the point of attachment. dPhg = N[C@@H](C(=O)O)c1ccccc1; Boc = CC(C)(C)OC(=O)*
measuredEndpoint: Thrombin Time: concentration required to prolong coagulation by 2fold (ng/mL)
// units = ng/mL; emit number, no label

Q: Requested field: Thrombin Time: concentration required to prolong coagulation by 2fold. Item: CO[C@@H](C(=O)N1CCC[C@H]1C(=O)N[C@H](C=O)CCCNC(=N)N)c1ccccc1 [(R)-α-Methoxyphenylacetyl]
Result: 139

Q: Requested field: Thrombin Time: concentration required to prolong coagulation by 2fold. Item: CC(=O)O.CC(=O)O.CC(C)(C)OC(=O)N[C@@H](C(=O)N1CCC[C@H]1C(=O)N[C@H](C=O)CCCNC(=N)N)c1cccc2ccccc12
Result: 230

Q: Requested field: Thrombin Time: concentration required to prolong coagulation by 2fold. Item: CC(C)(C)OC(=O)N[C@@H](C(=O)N1CCC[C@H]1C(=O)N[C@H](C=O)CCCNC(=N)N)c1ccccc1 [Boc-D-phenylglycyl, diacetate salt] (Boc-[dPhg]-Pro-Arg-aldehyde)
Result: 110

----------
Kindly state Thrombin Amidase Kass × 10^6 for each of the entries shown.
- system: bovine thrombin (Bos taurus)
- Construct: 25 μl of bovine thrombin solution (0.21 mg/ml of thrombostat powder); purchased thrombostat powder
- assayOverview: Inhibition of thrombin amidase activity (chromogenic substrate), bovine thrombin
- Type: biochemical
- testParameters: apparent equilibrium constant inhibitor-thrombin, mean over a range of concentrations
Square brackets hold non-standard residues; d marks the D form. Peptide text beside a SMILES is read from it. * marks the point of attachment. dNMePhg = CN[C@@H](C(=O)O)c1ccccc1; dHpg = N[C@@H](C(=O)O)c1ccc(O)cc1; dChg = N[C@@H](C(=O)O)C1CCCCC1; dPhg = N[C@@H](C(=O)O)c1ccccc1; Boc = CC(C)(C)OC(=O)*

Q: Requested field: Thrombin Amidase Kass × 10^6. Item: CC(=O)O.CC(=O)O.CC(C)(C)OC(=O)N[C@@H](C(=O)N1CCC[C@H]1C(=O)N[C@H](C=O)CCCNC(=N)N)c1ccc2ccccc2c1
Result: 22 × 10^6 1/mole

Q: Requested field: Thrombin Amidase Kass × 10^6. Item: CC(C)(C)OC(=O)N[C@@H](C(=O)N1CCC[C@H]1C(=O)N[C@H](C=O)CCCNC(=N)N)c1ccccc1.CC(C)(C)OC(=O)N[C@@H](C(=O)N1CCC[C@H]1C(=O)N[C@H](C=O)CCCNC(=N)N)c1ccccc1.O=S(=O)(O)O [Boc-D-phenylglycyl (sulfate salt)] (Boc-[dPhg]-Pro-Arg-aldehyde)
Result: 107 × 10^6 1/mole

Q: Requested field: Thrombin Amidase Kass × 10^6. Item: COc1ccc([C@@H](NC(=O)OC(C)(C)C)C(=O)N2CCC[C@H]2C(=O)N[C@H](C=O)CCCNC(=N)N)cc1
Result: 75 × 10^6 1/mole

Q: Requested field: Thrombin Amidase Kass × 10^6. Item: N=C(N)NCCC[C@@H](C=O)NC(=O)[C@@H]1CCCN1C(=O)[C@H](N)c1ccccc1 [D-Phenylglycyl] (H-[dPhg]-Pro-Arg-aldehyde)
Result: 75 × 10^6 1/mole

Q: Requested field: Thrombin Amidase Kass × 10^6. Item: N=C(N)NCCC[C@@H](C=O)NC(=O)[C@@H]1CCCN1C(=O)[C@H]1CC2CCCCC2CN1.O=S(=O)(O)O (stereo partly shown)
Result: 25 × 10^6 1/mole

Q: Requested field: Thrombin Amidase Kass × 10^6. Item: CC(C)(C)OC(=O)N[C@@H](C(=O)N1CCC[C@H]1C(=O)N[C@H](C=O)CCCNC(=N)N)C1CCCCC1 [Boc-D-cyclohexylglycyl] (Boc-[dChg]-Pro-Arg-aldehyde)
Result: 120 × 10^6 1/mole

Q: Requested field: Thrombin Amidase Kass × 10^6. Item: CC(=O)O.CC(=O)O.CC(C)(C)OC(=O)N[C@@H](C(=O)N1CCC[C@H]1C(=O)N[C@H](C=O)CCCNC(=N)N)c1cccc2ccccc12
Result: 52 × 10^6 1/mole

Q: Requested field: Thrombin Amidase Kass × 10^6. Item: CO[C@@H](C(=O)N1CCC[C@H]1C(=O)N[C@H](C=O)CCCNC(=N)N)c1ccccc1 [(R)-α-Methoxyphenylacetyl]
Result: 4 × 10^6 1/mole

Q: Requested field: Thrombin Amidase Kass × 10^6. Item: CC(C)(C)OC(=O)NC(C(=O)N1CCC[C@H]1C(=O)N[C@H](C=O)CCCNC(=N)N)c1cccc2ccccc12 (mixture of isomers)
Result: 18 × 10^6 1/mole

Q: Requested field: Thrombin Amidase Kass × 10^6. Item: CC(C)(C)OC(=O)NC(Cc1ccccc1)C(=O)N1CCCC1C(=O)NC(C=O)CCCN=C(N)N [Boc-D-phenylalanyl, reference compound]
Result: 21 × 10^6 1/mole

Q: Requested field: Thrombin Amidase Kass × 10^6. Item: CC(=O)O.CC(=O)O.CC(C)(C)OC(=O)N[C@@H](C(=O)N1CCC[C@H]1C(=O)N[C@H](C=O)CCCNC(=N)N)c1ccc(O)cc1 [Boc-D-(4-hydroxy)phenylglycyl] (Boc-[dHpg]-Pro-Arg-aldehyde)
Result: 115 × 10^6 1/mole

Q: Requested field: Thrombin Amidase Kass × 10^6. Item: CN[C@@H](C(=O)N1CCC[C@H]1C(=O)N[C@H](C=O)CCCNC(=N)N)c1ccccc1 [N^α -Methyl-D-phenylglycyl (sulfate)] (H-[dNMePhg]-Pro-Arg-aldehyde)
Result: 80 × 10^6 1/mole

Q: Requested field: Thrombin Amidase Kass × 10^6. Item: CC(C)(C)OC(=O)NC(C(=O)N1CCCC1C(=O)NC(C=O)CCCN=C(N)N)c1cccs1 (stereo not shown)
Result: 14 × 10^6 1/mole
